Collected kon values appear next to each entry.
system_name: T1, protocadherin-15 EC1+2, wild type, His-tagged (mouse, UniProt Q99PJ1 27-259)
T1 construct: Protocadherin-15 (PCDH15), mouse, N-terminal fragment EC1+2; pET21a, NdeI/XhoI; predicted molecular weight 27.5 kDa; Held on the Ni-NTA chip by its His tag in SPR; also called pcdh15; pcdh15(WT); not shown: His6, C-terminal, kept
test_method_notes: SPR; Biacore T100, Ni-NTA chip, 6xHis pcdh15 immobilised, tag-free cdh23 0.25 to 30 μM injected, 25°C, SEC buffer; global kinetic fit with EVILFIT (distribution model)
particulars: both partners purified

>  <binder>
cadherin-23 EC1+2 (residues 1-205) F7E, tagless (domain or fragment, mouse, an Ala residue included between CDH23 EC2 and the intein tag to improve cleavage efficiency; Mutant of m8; That the added Ala stays on the C-terminus after cleavage is surmised; also called cdh23(F7E)) QVNRLPEFTNHFFDTYLLISEDTPVGSSVTQLLARDMDNDPLVFGVSGEEASRFFAVEPDTGVVWLRQPLDRETKSEFTVEFSVSDHQGVITRKVNIQVGDVNDNAPTFHNQPYSVRIPENTPVGTPIFIVNATDPDLGAGGSVLYSFQPPSPFFAIDSARGIVTVIQELDYEVTQAYQLTVNATDQDKTRPLSTLANLAIIITDA

>  <kon (M⁻¹ s⁻¹)>
66000

$$$$
>  <binder>
cadherin-23 EC1+2 (residues 1-205) S76V, tagless (domain or fragment, mouse, an Ala residue included between CDH23 EC2 and the intein tag to improve cleavage efficiency; Mutant of m8; That the added Ala stays on the C-terminus after cleavage is surmised; also called cdh23(S76V)) QVNRLPFFTNHFFDTYLLISEDTPVGSSVTQLLARDMDNDPLVFGVSGEEASRFFAVEPDTGVVWLRQPLDRETKVEFTVEFSVSDHQGVITRKVNIQVGDVNDNAPTFHNQPYSVRIPENTPVGTPIFIVNATDPDLGAGGSVLYSFQPPSPFFAIDSARGIVTVIQELDYEVTQAYQLTVNATDQDKTRPLSTLANLAIIITDA

>  <kon (M⁻¹ s⁻¹)>
68800

$$$$
>  <binder>
cadherin-23 EC1+2 (residues 1-205), wild type, tagless (domain or fragment, mouse, an Ala residue included between CDH23 EC2 and the intein tag to improve cleavage efficiency; pTXB1, NdeI/SapI; That the added Ala stays on the C-terminus after thiol-induced cleavage, and that a start Met precedes residue 1, are surmised; also called tag-free cdh23; tagless cdh23) QVNRLPFFTNHFFDTYLLISEDTPVGSSVTQLLARDMDNDPLVFGVSGEEASRFFAVEPDTGVVWLRQPLDRETKSEFTVEFSVSDHQGVITRKVNIQVGDVNDNAPTFHNQPYSVRIPENTPVGTPIFIVNATDPDLGAGGSVLYSFQPPSPFFAIDSARGIVTVIQELDYEVTQAYQLTVNATDQDKTRPLSTLANLAIIITDA

>  <kon (M⁻¹ s⁻¹)>
61900

$$$$
>  <binder>
cadherin-23 EC1+2 (residues 1-205) T15E, tagless (domain or fragment, mouse, an Ala residue included between CDH23 EC2 and the intein tag to improve cleavage efficiency; Mutant of m8; That the added Ala stays on the C-terminus after cleavage is surmised; also called cdh23(T15E)) QVNRLPFFTNHFFDEYLLISEDTPVGSSVTQLLARDMDNDPLVFGVSGEEASRFFAVEPDTGVVWLRQPLDRETKSEFTVEFSVSDHQGVITRKVNIQVGDVNDNAPTFHNQPYSVRIPENTPVGTPIFIVNATDPDLGAGGSVLYSFQPPSPFFAIDSARGIVTVIQELDYEVTQAYQLTVNATDQDKTRPLSTLANLAIIITDA

>  <kon (M⁻¹ s⁻¹)>
55100

$$$$
